Every entry's value here was drawn from patent US20060025566A1.

assayed.target: human growth hormone secretagogue receptor (hGHS-R1a) (Homo sapiens, UniProt Q92847)
Construct: purchased PerkinElmer BioSignal #RBHGHSM, lot#1887; host or cells: HEK-293, stably transfected (membranes)
Sequence (Q92847 whole entry): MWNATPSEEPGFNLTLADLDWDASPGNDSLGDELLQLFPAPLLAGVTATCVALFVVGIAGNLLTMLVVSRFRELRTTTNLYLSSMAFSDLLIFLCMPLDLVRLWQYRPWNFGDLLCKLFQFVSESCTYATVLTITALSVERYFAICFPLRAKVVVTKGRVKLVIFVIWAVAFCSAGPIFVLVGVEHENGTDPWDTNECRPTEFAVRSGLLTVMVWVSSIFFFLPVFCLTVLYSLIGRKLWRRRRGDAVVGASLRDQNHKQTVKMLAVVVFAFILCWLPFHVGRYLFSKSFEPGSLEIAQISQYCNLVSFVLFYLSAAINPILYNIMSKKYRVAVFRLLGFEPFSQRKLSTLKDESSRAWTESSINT
assay.method.text: Competitive radioligand binding assay (ghrelin receptor), [125I]-ghrelin displacement on GHS-R/HEK 293 membranes
condition: binding activity at the human ghrelin receptor, [125I]-ghrelin competition, GHS-R/HEK 293 membranes; read-out: Ki
metric: Ki

Answered cases to consult:
Recorded Ki for CCC(C)C1NCCOc2ccccc2CCCNC(=O)C(Cc2ccc(Cl)cc2)NC(=O)C(C)N(C)C1=O (stereo not drawn) , please?
0.1 to 10 nM

I would be grateful if you could share the reported Ki for CCC(C)C1NCCOc2ccccc2CCCNC(=O)C(Cc2ccccc2)NC(=O)C(C)N(CC)C1=O (stereo not drawn) .
10 to 100 nM

Bench note: what Ki did O=C1NC2(CCCC2)C(=O)N[C@@H](Cc2ccccc2)C(=O)NCC=Cc2ccccc2OCCN[C@H]1Cc1cccc(Cl)c1 (stereo in doubt) show?
100 to 1000 nM

Can you look up the measured Ki of CC(C)CC1NCCOc2ccccc2CCCNC(=O)C(Cc2ccccc2)NC(=O)C2(CCCC2)NC1=O (stereo not drawn) [compound 113] for me?
100 to 1000 nM

---
Look at this compound and give its reported Ki. CCCC1NCc2cccc(c2)CNC(=O)C(Cc2ccccc2)NC(=O)CN(C)C1=O (stereo not drawn)
1000 to 10000 nM

I'd like to know its Ki. The compound in question is C[C@@H]1NCCOc2ccccc2CCCNC(=O)[C@@H](Cc2ccccc2)NC(=O)CN(C)C1=O
1000 to 10000 nM

For the compound shown here, CCCC1NCCC#CCCNC(=O)C(Cc2ccccc2)NC(=O)CN(C)C1=O (stereo not drawn) , give the reported Ki.
> 10000 nM

# input compound: O=C1NC2(CCCC2)C(=O)N[C@@H](Cc2ccccc2)C(=O)NCCCc2ccccc2OCCN[C@H]1Cc1ccccc1 ; wanted: its Ki
100 to 1000 nM

----------
assayed.target: human growth hormone secretagogue receptor (hGHS-R1a) (Homo sapiens, UniProt Q92847)
Construct: purchased PerkinElmer BioSignal #RBHGHSM, lot#1887; host or cells: HEK-293, stably transfected (membranes)
assay.method.text: Competitive radioligand binding assay (ghrelin receptor), [125I]-ghrelin displacement on GHS-R/HEK 293 membranes
condition: binding activity at the human ghrelin receptor, [125I]-ghrelin competition, GHS-R/HEK 293 membranes; read-out: Ki
metric: Ki

What measured Ki goes with CC(C)C[C@@H]1NCCOc2ccccc2CCCNC(=O)[C@H](Cc2ccc(O)cc2)NC(=O)C2(CCCC2)NC1=O [compound 88] ?
1000 to 10000 nM

I would be grateful if you could share the reported Ki for O=C1NC2(CCCC2)C(=O)N[C@@H](Cc2ccccc2)C(=O)NCC=Cc2ccccc2OCCN[C@H]1Cc1ccc(-c2ccccc2)cc1 (stereo in doubt) [compound 128] .
> 10000 nM

Entry CCC(C)C1NCCOc2ccccc2CCCNC(=O)C(Cc2ccc(OC)cc2)NC(=O)C(C)N(C)C1=O (stereo not shown) [compound 27] : reported Ki = ?
0.1 to 10 nM

Please give the measured Ki for this compound: CN1CC(=O)NC(Cc2ccccc2)C(=O)NCCCc2ccccc2OCCNCC1=O (stereo not shown) [compound 80]
> 10000 nM

Next:
Which value of Ki has been reported for CC[C@H](C)[C@@H]1NCCOc2ccccc2CCCNC(=O)[C@@H](Cc2ccccc2Cl)NC(=O)[C@@H](C)N(C)C1=O [compound 23] in the records?
0.1 to 10 nM

For the compound CCC(C)C1NCCOc2ccccc2CCCNC(=O)C(Cc2ccccn2)NC(=O)C(C)N(C)C1=O (stereo not shown) [compound 32] , what Ki is on record?
10 to 100 nM

I'd like to know its Ki. The compound in question is O=C1NC2(CCCC2)C(=O)N[C@@H](Cc2ccccc2)C(=O)NCC=Cc2ccccc2OCCN[C@H]1Cc1ccncc1 (stereo in doubt) [compound 133]
> 1000 nM

----------
Reported Ki values are given for each entry in this list.
assayed.target: human growth hormone secretagogue receptor (hGHS-R1a) (Homo sapiens, UniProt Q92847)
Construct: purchased PerkinElmer BioSignal #RBHGHSM, lot#1887; host or cells: HEK-293, stably transfected (membranes)
assay.method.text: Competitive radioligand binding assay (ghrelin receptor), [125I]-ghrelin displacement on GHS-R/HEK 293 membranes
condition: binding activity at the human ghrelin receptor, [125I]-ghrelin competition, GHS-R/HEK 293 membranes; read-out: Ki

For CC[C@H](C)[C@@H]1NCCOc2ccccc2CCCNC(=O)[C@@H](Cc2cccc(Cl)c2)NC(=O)[C@@H](C)N(C)C1=O , what is its reported Ki?
0.1 to 10 nM

// Ki lookup, key: CCC[C@@H]1NCCOc2ccccc2CCCNC(=O)[C@@H](Cc2ccccc2)NC(=O)[C@H](C)NC1=O
1000 to 10000 nM

----------
assayed.target: human growth hormone secretagogue receptor (hGHS-R1a) (Homo sapiens)
Construct: purchased PerkinElmer BioSignal #RBHGHSM, lot#1887; host or cells: HEK-293, stably transfected (membranes)
assay.method.text: Competitive radioligand binding assay (ghrelin receptor), [125I]-ghrelin displacement on GHS-R/HEK 293 membranes
condition: binding activity at the human ghrelin receptor, [125I]-ghrelin displacement; read-out: Ki
pKi: −log10 of the molar value.
Below, each entry is listed alongside its reported pKi.

Reference set (8 entries):
Any idea what its pKi is? The compound is CC[C@H](C)[C@@H]1NCCOc2ccccc2CCCNC(=O)C(Cc2cccc(Cl)c2)NC(=O)C2(CCCC2)NC1=O (stereo in doubt)
7.00 to 8.00

Which pKi is listed for C[C@@H]1C(=O)N[C@H](Cc2ccc(F)cc2)C(=O)NCCCc2ccccc2OCCN[C@@H](CCN)C(=O)N1C ?
6.00 to 7.00

Fill blank: measured pKi of the compound CC[C@H](C)[C@@H]1NCCOc2ccccc2CCCNC(=O)[C@@H](Cc2c[nH]cn2)NC(=O)[C@@H](C)N(C)C1=O is ____.
6.00 to 7.00

Form field: reported pKi of CCC(C)C1NCCOc2ccccc2C=CCNC(=O)C(Cc2cccc(F)c2)NC(=O)C2(CCCC2)NC1=O (stereo not shown)
7.00 to 8.00

# get_value(readout='pKi', item= CC1C(=O)NC(Cc2ccc(F)cc2)C(=O)NCC=Cc2ccccc2OCCNC(C2CC2)C(=O)N1C (stereo not shown) )
8.00 to 10.00

// returns reported pKi for input C[C@@H]1C(=O)N[C@H](Cc2ccc(Cl)cc2)C(=O)NCC=Cc2ccccc2OCCN[C@@H](C2CC2)C(=O)N1C (stereo in doubt)
8.00 to 10.00

Form field: reported pKi of COC[C@@H]1NCCOc2ccccc2CCCNC(=O)[C@@H](Cc2ccc(F)cc2)NC(=O)[C@@H](C)N(C)C1=O
6.00 to 7.00

// returns reported pKi for input C[C@@H]1C(=O)N[C@H](Cc2ccc(C#N)cc2)C(=O)NCCCc2ccccc2OCCN[C@@H](C2CC2)C(=O)N1C
7.00 to 8.00

Next up:
Requested read-out: pKi. Entry: C[C@@H]1C(=O)N[C@H](Cc2ccccc2F)C(=O)NCCCc2ccccc2OCCN[C@@H](C2CC2)C(=O)N1C
8.00 to 10.00

----------
assayed.target: human growth hormone secretagogue receptor (hGHS-R1a) (Homo sapiens, UniProt Q92847)
Construct: purchased PerkinElmer BioSignal #RBHGHSM, lot#1887; host or cells: HEK-293, stably transfected (membranes)
assay.method.text: Competitive radioligand binding assay (ghrelin receptor), [125I]-ghrelin displacement on GHS-R/HEK 293 membranes
condition: [125I]-ghrelin competition, GHS-R/HEK 293 membranes; Table 3A; read-out: Binding Activity at the Human Ghrelin Receptor
pKi: −log10 of the molar value.
metric: pKi

For human growth hormone secretagogue receptor (hGHS-R1a) (Homo sapiens, UniProt Q92847), provide pKi of CC[C@H](C)[C@@H]1NCCOc2ccccc2CCCNC(=O)[C@@H](Cc2ccncc2)NC(=O)[C@@H](C)N(C)C1=O please.
7.00 to 8.00

What measured pKi is associated with CC(C)C[C@H]1C(=O)NC2(CCCC2)C(=O)N[C@@H](Cc2ccccc2)C(=O)NCC=Cc2ccccc2OCCN1C (stereo in doubt) on human growth hormone secretagogue receptor (hGHS-R1a) (Homo sapiens, UniProt Q92847)?
5.00 to 6.00

----------
Reported Ki values follow for various compounds
assayed.target: human growth hormone secretagogue receptor (hGHS-R1a) (Homo sapiens, UniProt Q92847)
Construct: purchased PerkinElmer BioSignal #RBHGHSM, lot#1887; host or cells: HEK-293, stably transfected (membranes)
assay.method.text: Competitive radioligand binding assay (ghrelin receptor), [125I]-ghrelin displacement on GHS-R/HEK 293 membranes
condition: binding activity, standard method; TFA salts unless otherwise noted; read-out: Ki
Description: The competitive binding assay at the human growth hormone secretagogue receptor (hGHS-R1a) was carried out analogously to assays described in the literature. Multiscreen Harvest plates-GF/C (Millipore, #MAHFC 1H60) • 4. […] Plates were sealed with TopSeal-A, vortexed gently and incubated at rt for 30 min. […] Results were expressed as counts per minute (cpm). Data were analyzed by GraphPad Prism (GraphPad Software, San Diego, Calif.) using a variable slope non-linear regression analysis. […]

The examples below pair each entry with its known result.
Name the reported Ki value associated with the compound CC[C@H](C)[C@@H]1NCCOc2ccccc2CCCNC(=O)[C@@H](Cc2ccccc2Cl)NC(=O)[C@@H](C)N(C)C1=O
0.1 to 10 nM

Given the compound CCC[C@@H]1NCCOc2ccccc2CCCNC(=O)[C@@H](Cc2c[nH]c3ccccc23)NC(=O)CN(C)C1=O , what is its reported Ki?
100 to 1000 nM

Query (compound): CC(C)C[C@@H]1NCCOc2ccccc2CCCNC(=O)[C@@H](Cc2ccccc2)NC(=O)C2(CCCC2)NC1=O ; field requested: Ki
10 to 100 nM

Continuing:
I would be grateful if you could share the reported Ki for C[C@@H]1C(=O)N[C@H](Cc2ccc(O)c(C(C)(C)C)c2)C(=O)NCCCc2ccccc2OCCN[C@@H](C2CC2)C(=O)N1C .
10 to 100 nM

Request the reported Ki associated with CCC(C)C1NCCOc2ccccc2CCCNC(=O)C(Cc2ccc(O)cc2)NC(=O)C(C)N(C)C1=O (stereo not shown)
10 to 100 nM

Quick one: Ki of CC(C)C[C@@H]1NCCOc2ccccc2C=CCNC(=O)[C@H](Cc2ccccc2)NC(=O)C2(CCCC2)NC1=O (stereo in doubt) ?
10 to 100 nM

Using the record for CC(C)C[C@@H]1NCCOc2ccccc2CCCNC(=O)[C@H](Cc2ccccc2)NC(=O)C2(CC2)NC1=O , report its Ki.
10 to 100 nM
